# key: entry, value: IC50
# EXPERIMENTAL_TARGET: human mGlu7 (Homo sapiens)
# TEST_PROTOCOL: mGlu7 assay on HEK-expressing human mGlu7: fluorescent cell-based Ca2+ mobilization (FLIPR384), inhibition of EC80 L-AP4 response
# MEASUREMENT_PARAMETERS: HEK-293 cells expressing hmGlu7, EC80 L-AP4 stimulation; mean of at least three independent experiments in duplicate; read-out: Ca^2+ Flux (mean IC50)

compound=COc1cccc(-c2ccc3c(=O)n(-c4ccc(S(C)(=O)=O)cn4)ncc3c2)c1C measured_endpoint=IC50 observed_result="100 to 1000 nM"
compound=CN1CCCc2c(-c3ccc4c(=O)n(-c5ccccn5)ncc4c3)cccc21 measured_endpoint=IC50 observed_result="< 100 nM"
compound=O=c1c2ccc(-c3ccc(F)c(N4CCC4)c3)cc2cnn1-c1ccccn1 measured_endpoint=IC50 observed_result="1000 to 10000 nM"
compound=CC(F)(F)c1cccc(-c2ccc3c(=O)n(-c4ccccn4)ncc3c2)c1 measured_endpoint=IC50 observed_result="100 to 1000 nM"
compound="COc1cccc(-c2ccc3c(=O)n(-c4ccc(S(C)(=N)=O)cn4)ncc3c2)c1C (stereo not drawn)" measured_endpoint=IC50 observed_result="< 100 nM"

Form: compound = O=c1c2ccc(-c3cccc(OC4CC4)c3Cl)cc2cnn1-c1ncccn1 ; IC50 = 100 to 1000 nM

Form: compound = CN1CCCc2c(-c3ccc4c(=O)n(-c5ncccn5)ncc4c3)cccc21 ; IC50 = < 100 nM

Form: compound = COc1nccc(-c2ccc3c(=O)n(-c4ncccn4)ncc3c2)c1F ; IC50 = 1000 to 10000 nM

Form: compound = Cc1ccc(-c2ccc3c(=O)n(-c4ccncc4)ncc3c2)c(C)c1 ; IC50 = 100 to 1000 nM

====

# EXPERIMENTAL_TARGET: human mGlu7 (Homo sapiens, UniProt Q14831)
# Sequence (Q14831 35-922 isoform Q14831-2 limits assumed): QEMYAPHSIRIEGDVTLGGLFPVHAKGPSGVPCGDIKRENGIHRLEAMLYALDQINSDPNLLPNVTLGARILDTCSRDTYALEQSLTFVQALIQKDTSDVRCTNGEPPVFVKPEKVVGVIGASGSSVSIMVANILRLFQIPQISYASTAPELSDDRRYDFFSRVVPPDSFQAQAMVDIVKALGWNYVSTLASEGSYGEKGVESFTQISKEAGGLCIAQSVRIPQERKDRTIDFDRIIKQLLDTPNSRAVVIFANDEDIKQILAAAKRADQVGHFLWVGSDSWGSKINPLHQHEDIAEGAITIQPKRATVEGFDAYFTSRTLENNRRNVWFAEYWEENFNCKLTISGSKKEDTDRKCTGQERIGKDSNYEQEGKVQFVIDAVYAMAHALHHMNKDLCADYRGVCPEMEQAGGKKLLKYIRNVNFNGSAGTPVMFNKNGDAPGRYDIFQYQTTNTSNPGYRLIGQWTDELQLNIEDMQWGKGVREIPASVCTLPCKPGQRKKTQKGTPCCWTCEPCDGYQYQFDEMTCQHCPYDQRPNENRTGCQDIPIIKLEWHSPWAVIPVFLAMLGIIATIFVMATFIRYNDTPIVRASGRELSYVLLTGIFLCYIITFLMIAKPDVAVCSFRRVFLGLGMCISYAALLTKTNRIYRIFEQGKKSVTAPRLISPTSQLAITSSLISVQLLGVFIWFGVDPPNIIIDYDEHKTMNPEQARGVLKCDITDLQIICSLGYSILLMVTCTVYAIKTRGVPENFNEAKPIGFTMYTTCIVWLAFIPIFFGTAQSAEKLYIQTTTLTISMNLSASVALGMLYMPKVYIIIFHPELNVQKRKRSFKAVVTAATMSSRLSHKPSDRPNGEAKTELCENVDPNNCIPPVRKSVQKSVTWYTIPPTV
# TEST_PROTOCOL: mGlu7 assay on HEK-expressing human mGlu7: fluorescent cell-based Ca2+ mobilization (FLIPR384), inhibition of EC80 L-AP4 response
# MEASUREMENT_PARAMETERS: HEK-293 cells expressing hmGlu7, EC80 L-AP4 stimulation; mean of at least three independent experiments in duplicate; read-out: Ca^2+ Flux (mean IC50)
# Description: mGlu7 Assay on HEK-Expressing Human mGlu7 […] After 10 s of basal fluorescence recording, various concentrations of the compounds of the invention were added to the cells. Changes in fluorescence levels were first monitored for 180 s in order to detect any agonist activity of the compounds. […]
pIC50: −log10 of the molar value.
MEASURED_ENDPOINT: pIC50

Solved entries (count: 5):
molecule="O=c1c2ccc(-c3cccc(OC(F)F)c3)cc2cnn1-c1ccccn1 [1-38]" observed_result="> 7.00"
molecule="O=c1c2ccc(-c3cccc(N4CCC4)c3)cc2cnn1-c1ncccn1 [1-46]" observed_result="> 7.00"
molecule="Cc1cnc(-n2ncc3cc(-c4cccc5c4CCN5C)ccc3c2=O)nc1 [1-56]" observed_result="> 7.00"
molecule="COc1cccc(-c2ccc3c(=O)n(-c4ccc(SC)cn4)ncc3c2)c1C [1-67]" observed_result="6.00 to 7.00"
molecule="O=c1c2ccc(-c3cc(N4CCC4)ccn3)cc2cnn1-c1ccccn1 [1-53]" observed_result="5.00 to 6.00"

Recorded pIC50 for O=c1c2ccc(-c3cccc(N4CCC4)c3)cc2cnn1Cc1ccccc1 [1-20] on human mGlu7 (Homo sapiens, UniProt Q14831) was 6.00 to 7.00

Recorded pIC50 for COc1cccc(-c2ccc3c(=O)n(-c4ncccc4F)ncc3c2)c1 [1-29] on human mGlu7 (Homo sapiens, UniProt Q14831) was 6.00 to 7.00

Recorded pIC50 for CN1CCc2c(-c3ccc4c(=O)n(-c5ccccn5)ncc4c3)cccc21 [1-37] on human mGlu7 (Homo sapiens, UniProt Q14831) was > 7.00

Recorded pIC50 for O=c1c2ccc(-c3cccc4c3ccn4C3CC3)cc2cnn1-c1ccccn1 [1-47] on human mGlu7 (Homo sapiens, UniProt Q14831) was 5.00 to 6.00

Recorded pIC50 for COc1cccc(-c2ccc3c(=O)n(-c4ncc(NC5CCCC(O)C5)cn4)ncc3c2)c1C (centres unmarked) [1-75] on human mGlu7 (Homo sapiens, UniProt Q14831) was > 7.00

Recorded pIC50 for CCn1ncc2cc(-c3cccc(N4CCC4)c3)ccc2c1=O [1-11] on human mGlu7 (Homo sapiens, UniProt Q14831) was > 7.00
